- protocol summary: solubility in sodium carbonate-deionized water solution (pH 8.0)
- Format: physicochemical
- experimental setup: pH 8, aqueous buffer, thermodynamic from solid, pH 8.0, room temperature, read-out: solubility in water adjusted to pH 8.0 with very dilute sodium carbonate
measurement label: solubility

compound="CC(/C=C/C=C(\\C)C(=O)[O-])=C\\C=C\\C=C(C)\\C=C\\C=C(/C)C(=O)[O-].[Na+].[Na+] [TSC, Trans Sodium Crocetinate]" reported_result="~10000 µg/mL"

---

- protocol summary: solubility in water
- experimental setup: water
measurement label: solubility

compound="CC(/C=C/C=C(\\C)C(=O)[O-])=C\\C=C\\C=C(C)\\C=C\\C=C(/C)C(=O)[O-].[Na+].[Na+] [TSC, Trans Sodium Crocetinate]" reported_result="~10000 µg/mL"

Data origin: patent US9604899B2
